System: OVCAR-8 ovarian
Assay: NCI tumour cell line growth inhibition, 48 h
Below: a set of entries, each annotated with reported TGI.

Reference set, count: 8
Given the compound CN(c1ccccc1Cl)S(=O)(=O)c1ccc([N+](=O)[O-])cc1 , write its reported TGI.
> 100 µM

Given the compound CCOC(=O)CC1(c2cccc3ccccc23)OC(=O)c2ccccc21 (centres undefined) , write its reported TGI.
> 100 µM

Given the compound Cc1ccc(/C=N/Nc2ccc3ccccc3n2)s1 , write its reported TGI.
> 100 µM

Given the compound O=[N+]([O-])CCc1cccc([N+](=O)[O-])c1 , write its reported TGI.
> 100 µM

Given the compound Cc1ccc(C)c(C2NC(=O)c3ccccc3N2)c1 (centres undefined) , write its reported TGI.
> 79.6 µM

Given the compound CN(C)CCCn1nc(N)c2nc3cc(Cl)ccc3nc21 , write its reported TGI.
> 100 µM

Given the compound CCCCCCCCCCC1OC([C@@H](O)CC[C@H](O)C2CC[C@@H](CCCCCCCC(O)CC3=CC(C)OC3=O)O2)CCC1O (some centres undefined) , write its reported TGI.
> 25 µM

Given the compound Nc1nn2c(nc(N)c3c(N)[nH]nc32)c1N=Nc1ccc(Br)cc1 , write its reported TGI.
> 97.1 µM

More entries:
Given the compound O=CC12C3CCC1C2C(=O)C3 (centres undefined) , write its reported TGI.
> 100 µM
